Target: T1, p85α nSH2 (325–430) (human, UniProt P27986 325-430)
T1 construct: PI3K regulatory subunit p85α, human, N-terminal SH2 domain, residues 325-430; also called nSH2 domain of p85α; WT nSH2 domain of p85α; source: E. coli, purified (glutathione-agarose, HRV 3C cleavage, S75 size exclusion)
T1 sequence (P27986 325-430): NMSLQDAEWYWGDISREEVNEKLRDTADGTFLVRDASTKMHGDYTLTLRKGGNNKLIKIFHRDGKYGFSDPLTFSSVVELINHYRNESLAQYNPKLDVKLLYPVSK
Assay: fluorescence polarisation; SH2 domain titrated into 5-FAM-labelled peptide (20 nM CD28, YSLV, pYSLV; 40 nM YSLM, pYSLM), 298 K, 96-well plates, single site binding isotherm
Details: both partners purified
pKd: −log10 of the molar value. Square brackets hold non-standard residues; d marks the D form. Ends that are not written are not given here. * marks the point of attachment. 5FAM = O=C1OC2(c3ccc(O)cc3Oc3cc(O)ccc32)c2ccc(C(=O)*)cc21; pY = N[C@@H](Cc1ccc(OP(=O)(O)O)cc1)C(=O)O

binder: 5FAM-TEDQ[pY]SLMEDE (also called β peptide; p85β (pYSLM) peptide; source: synthetic peptide; bought: Cambridge Research Biochemicals) [[5-FAM]-TEDQ-[pY]-SLMEDE, phosphorylated peptide based on p85β]
pKd: 7.09
--
binder: 5FAM-TEDQ[pY]SLVEDE (also called α peptide; p85α (pYSLV) peptide; source: synthetic peptide; bought: Biomatik) [[5-FAM]-TEDQ-[pY]-SLVEDE, phosphorylated peptide based on p85α]
pKd: 5.62
